Each record here notes measured t1/2.
- systemUnderTest: T1, human FLT3 (hFLT3) (human, UniProt P36888 27-543)
- T1 construct: also called huFlt3; Fms-Like Tyrosine Kinase 3
- T1 sequence (looked up): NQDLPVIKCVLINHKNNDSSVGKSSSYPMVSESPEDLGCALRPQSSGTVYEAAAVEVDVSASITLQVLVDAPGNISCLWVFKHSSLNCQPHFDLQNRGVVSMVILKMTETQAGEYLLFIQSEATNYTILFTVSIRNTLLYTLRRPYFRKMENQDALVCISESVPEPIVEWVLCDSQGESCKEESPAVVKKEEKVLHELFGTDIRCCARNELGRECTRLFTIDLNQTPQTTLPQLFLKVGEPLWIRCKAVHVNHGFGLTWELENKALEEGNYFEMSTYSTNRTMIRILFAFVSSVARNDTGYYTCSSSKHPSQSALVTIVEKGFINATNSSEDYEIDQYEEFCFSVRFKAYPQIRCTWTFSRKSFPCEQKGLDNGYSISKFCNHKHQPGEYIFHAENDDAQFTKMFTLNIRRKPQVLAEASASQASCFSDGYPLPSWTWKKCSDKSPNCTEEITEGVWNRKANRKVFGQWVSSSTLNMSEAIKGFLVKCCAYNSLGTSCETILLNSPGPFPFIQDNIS
- assayMethodText: SPR (Biacore T200), 37 C; IgG captured on anti-human Fc, hFLT3 as analyte
Kindly answer with a numeric value in min, unit omitted.

1) P3E10 (IgG format) (antibody, V domains shown, IgG format, captured by anti-human Fc) VH: QVQLVQSGAEVKKPGSSVKVSCKASGGTFSSYAIQWVRQAPGQGLEWMGGIVGSWGLANYAQKFQGRVTITTDKSTSTAYMELSSLRSEDTAVYYCATSAFGELASWGQGTLVTVSS VL: EIVLTQSPGTLSLSPGERATLSCRASQSVPSSQLAWYQQKPGQAPRLLIYDASSRATGIPDRFSGSGSGTDFTLTISRLEPEDFAVYYCQQYGSSPLTFGQGTKVEIK: 0.6
2) P4H11 (IgG format) (antibody, V domains shown, IgG format, captured by anti-human Fc) VH: EVQLLESGGGLVQPGGSLRLSCAASGFTFSSYAMNWVRQAPGKGLEWVSSISGGGRSTYYADSVKGRFTISRDNSKNTLYLQMNSLRAEDTAVYYCARDLSPSDVGWGYGFDIWGQGTLVTVSS VL: EIVLTQSPGTLSLSPGERATLSCRASQSVSNTYLAWYQQKPGQAPRLLIYDTSSRATGIPDRFSGSGSGTDFTLTISRLEPEDFAVYYCQQYGSSLTFGQGTKVEIK: 1

Okay, next one:
For P15F7 (IgG format) (antibody, V domains shown, IgG format, captured by anti-human Fc) VH: EVQLLESGGGLVQPGGSLRLSCAASGFTFNNYAMNWVRQAPGKGLEWVSVISGSGGTTYYADSVKGRFTISRDNSKNTLYLQMNSLRAEDTAVYYCASGIWDLRYWGQGTLVTVSS VL: DIQMTQSPSSLSASVGDRVTITCRASQSISTYLNWYQQKPGKAPKLLIYAASNLQSGVPSRFSGSGSGTDFTLTISSLQPEDFATYYCQQSYSIPLTFGQGTKVEIK the binder record lists t1/2 as 2.1
